Data origin, for the record: patent US7754747B2

target: recombinant human plasminogen activator inhibitor-1 (PAI-1) (Homo sapiens); construct: purchased Molecular Innovations, Royal Oak, Mich; assay: Primary Screen for the PAI-1 Inhibition (residual tPA activity, Spectrozyme-tPA chromogenic substrate); assay type: biochemical; conditions: 10 μM test compound; pH 6.6 buffer
endpoint name: inhibition at 10 µM (%)
Report the figure in % without appending any unit label.

Use the examples below as a reference point.
[[record]]
molecule = "Cn1cc(-c2ncc(-c3ccc4cc(OCc5nnn[nH]5)ccc4c3)o2)c2ccccc21 [Example 10]"
endpoint_name = "inhibition at 10 µM"
result_number = 16

[[record]]
molecule = "c1ccc2cc(Cc3ncc(-c4ccc5cc(OCc6nnn[nH]6)ccc5c4)o3)ccc2c1 [Example 15]"
endpoint_name = "inhibition at 10 µM"
result_number = 22

[[record]]
molecule = "c1ccc(Cc2ncc(-c3ccc4cc(OCc5nnn[nH]5)ccc4c3)o2)cc1 [Example 13]"
endpoint_name = "inhibition at 10 µM"
result_number = 11


Need inhibition at 10 µM, item O=C(O)C(Cc1ccccc1)Oc1ccc2cc(-c3cnc(-c4cn(Cc5ccccc5)c5ccccc45)o3)ccc2c1 (centres unmarked) [Example 5]
1

Same lookup for CCCCc1oc2ccccc2c1-c1ncc(-c2ccc3cc(OCc4nnn[nH]4)ccc3c2)o1 [Example 2] , please.
12

====

IC50 data for human PAI-1 (Homo sapiens, UniProt P05121) follow.
Give the value, in units of µM, as a plain number.

[[record]]
molecule = "O=C(O)C(Cc1ccccc1)Oc1ccc2cc(-c3cnc(-c4cn(Cc5ccccc5)c5ccccc45)o3)ccc2c1 (stereo not drawn)"
result_number = 47.4


Param readout= IC50; system= human PAI-1 (Homo sapiens, UniProt P05121); entry= CCCCc1oc2ccccc2c1-c1ncc(-c2ccc3cc(OCc4nnn[nH]4)ccc3c2)o1 ; returns value.
19.4

And for CCCCc1oc2ccccc2c1-c1ncc(-c2ccc3cc(OCC(=O)O)ccc3c2)o1 ?
22.7

====

endpoint name: melting point

[[record]]
molecule = "CCCCc1oc2ccccc2c1-c1ncc(-c2ccc3cc(OCc4ccc(C(=O)O)cc4C(=O)O)ccc3c2)o1"
result = "285 to 287 °C"

[[record]]
molecule = "c1ccc(-c2ncc(-c3ccc4cc(OCc5nnn[nH]5)ccc4c3)o2)cc1"
result = "239 to 241 °C"

[[record]]
molecule = "c1ccc(Cc2ncc(-c3ccc4cc(OCc5nnn[nH]5)ccc4c3)o2)cc1"
result = "227 to 228 °C"

[[record]]
molecule = "O=C(O)COc1ccc2cc(-c3cnc(Cc4ccccc4)o3)ccc2c1"
result = "236 to 238 °C"

[[record]]
molecule = "CCCCc1oc2ccccc2c1-c1ncc(-c2ccc3c(Br)c(OCc4nnn[nH]4)ccc3c2)o1"
result = "235 to 237 °C"

[[record]]
molecule = "CCCCc1oc2ccccc2c1-c1ncc(-c2ccc3cc(OCc4nnn[nH]4)ccc3c2)o1"
result = "238 to 240 °C"


Would you kindly share the measured melting point for O=C(O)C(Cc1ccccc1)Oc1ccc2cc(-c3cnc(-c4cn(Cc5ccccc5)c5ccccc45)o3)ccc2c1 (centres unmarked) ?
125 to 127 °C

Also CCCCc1oc2ccccc2c1-c1ncc(-c2ccc3cc(OCc4ccc(C(=O)O)cc4)ccc3c2)o1 ?
251 to 254 °C

====

target: recombinant human plasminogen activator inhibitor-1 (PAI-1) (Homo sapiens, UniProt P05121); construct: purchased Molecular Innovations, Royal Oak, Mich; assay: Primary Screen for the PAI-1 Inhibition (residual tPA activity, Spectrozyme-tPA chromogenic substrate); assay type: biochemical; details: 25 μM test compound; pH 6.6 buffer
Sequence (P05121 24-402): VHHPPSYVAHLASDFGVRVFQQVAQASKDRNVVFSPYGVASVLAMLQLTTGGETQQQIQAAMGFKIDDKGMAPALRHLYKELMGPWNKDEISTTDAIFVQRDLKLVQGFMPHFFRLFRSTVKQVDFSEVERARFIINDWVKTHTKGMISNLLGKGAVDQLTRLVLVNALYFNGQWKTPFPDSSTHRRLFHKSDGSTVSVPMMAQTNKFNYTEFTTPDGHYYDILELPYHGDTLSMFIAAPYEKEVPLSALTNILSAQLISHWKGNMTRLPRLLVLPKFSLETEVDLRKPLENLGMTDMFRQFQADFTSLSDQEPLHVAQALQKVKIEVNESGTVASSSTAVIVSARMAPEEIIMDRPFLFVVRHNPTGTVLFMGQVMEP
# inhibition at 25 µM per record follows
Numeric answer only, unit % assumed.

[[record]]
compound = "CCCCc1oc2ccccc2c1-c1ncc(-c2ccc3c(Br)c(OCc4nnn[nH]4)ccc3c2)o1"
unit_label = "%"
result_number = 16

[[record]]
compound = "O=C(O)C(Cc1ccccc1)Oc1ccc2cc(-c3cnc(Cc4ccccc4)o3)ccc2c1 (stereo not drawn)"
unit_label = "%"
result_number = 31


Suppose we examine the compound O=C(O)C(Cc1ccccc1)Oc1ccc2cc(-c3cnc(-c4cn(Cc5ccccc5)c5ccccc45)o3)ccc2c1 (stereo not drawn) ; what inhibition at 25 µM value has been reported?
34
